Values were extracted from paper PMC7346113.

# IC50 per record follows
system: Hep3B; test: Cell viability, crystal violet assay, Hep3B; format: cell-based, human; settings: Homo sapiens, Hep3B, 72 h; mean ± standard error
RESULT_TYPE: IC50 (µM)

Oc1ccc([C@H]2c3c(O)cc(O)cc3[C@H]3c4c(cc(O)cc4[C@@H]2[C@H]2c4cc(O)cc5c4[C@H](c4cc(O)cc(O)c4[C@@H]2c2ccc(O)cc2)[C@@H](c2ccc(O)cc2)O5)O[C@@H]3c2ccc(O)cc2)cc1 ... 13
Oc1ccc(/C=C/c2cc(O)cc(O)c2)cc1 [trans-Resveratrol, reference compound] ... 21
Oc1ccc([C@@H]2c3c(O)cc(O)cc3[C@H]3c4c(cc(O)cc4[C@@H]2[C@H]2c4cc(O)cc5c4[C@H](c4cc(O)cc(O)c4[C@H]2c2ccc(O)cc2)[C@@H](c2ccc(O)cc2)O5)O[C@@H]3c2ccc(O)cc2)cc1 ... 26
Oc1ccc([C@H]2c3c(O)cc(O)cc3[C@H]3c4c(cc(O)cc4[C@@H]2c2cc(/C=C/c4cc(O)cc5c4[C@H](c4cc(O)cc(O)c4)[C@@H](c4ccc(O)cc4)O5)ccc2O)O[C@@H]3c2ccc(O)cc2)cc1 ... 48
Oc1ccc([C@H]2c3c(O)cc(O)cc3[C@H]3c4c(cc(O)cc4[C@@H]2O)O[C@@H]3c2ccc(O)cc2)cc1 ... 109
Oc1ccc([C@H]2Oc3cc(O)cc(/C=C/c4ccc5c(c4)[C@@H](c4cc(O)cc6c4[C@H](c4cc(O)cc(O)c4)[C@@H](c4ccc(O)cc4)O6)[C@H](c4ccc(O)cc4)O5)c3[C@@H]2c2cc(O)cc(O)c2)cc1 ... 135
Oc1ccc(/C=C/c2cc(O)cc3c2[C@@H](c2cc(O)cc(O)c2)[C@H](c2ccc(O)cc2)O3)cc1 [trans-ε-Viniferin] ... 63

----------
tested on: HepG2; assay: Cell viability, crystal violet assay, HepG2; type: cell-based, human; settings: Homo sapiens, HepG2, 48 h, 48 h; mean ± standard error
RESULT_TYPE: log10 of IC50 (log10 of the value in µM)

Oc1ccc([C@H]2c3c(O)cc(O)cc3[C@H]3c4c(cc(O)cc4[C@@H]2c2cc(/C=C/c4cc(O)cc5c4[C@H](c4cc(O)cc(O)c4)[C@@H](c4ccc(O)cc4)O5)ccc2O)O[C@@H]3c2ccc(O)cc2)cc1 ... 1.01
Oc1ccc([C@H]2c3c(O)cc(O)cc3[C@H]3c4c(cc(O)cc4[C@@H]2O)O[C@@H]3c2ccc(O)cc2)cc1 ... 1.99
Oc1ccc([C@@H]2c3c(O)cc(O)cc3[C@H]3c4c(cc(O)cc4[C@@H]2[C@H]2c4cc(O)cc5c4[C@H](c4cc(O)cc(O)c4[C@H]2c2ccc(O)cc2)[C@@H](c2ccc(O)cc2)O5)O[C@@H]3c2ccc(O)cc2)cc1 ... 1.84
Oc1ccc(/C=C/c2cc(O)cc(O)c2)cc1 [trans-Resveratrol, reference compound] ... 1.61
Oc1ccc([C@H]2c3c(O)cc(O)cc3[C@H]3c4c(cc(O)cc4[C@@H]2[C@H]2c4cc(O)cc5c4[C@H](c4cc(O)cc(O)c4[C@@H]2c2ccc(O)cc2)[C@@H](c2ccc(O)cc2)O5)O[C@@H]3c2ccc(O)cc2)cc1 ... 1.43
Oc1ccc(/C=C/c2cc(O)cc3c2[C@@H](c2cc(O)cc(O)c2)[C@H](c2ccc(O)cc2)O3)cc1 [trans-ε-Viniferin] ... 2.02
